test: total protein half-life in vivo (active degradation + dilution); higher = more stable protein; conditions: wild type E. coli NCM3722; growth: P-lim chemostat; doubling time 12 h
readout.kind: total protein half-life in vivo (h)
Give the value, in units of h, as a plain number.

Please review the entries below; each comes with its answer.
- sequence.chain: "MTIHKKGQAHWEGDIKRGKGTVSTESGVLNQQPYGFNTRFEGEKGTNPEELIGAAHAACFSMALSLMLGEAGFTPTSIDTTADVSLDKVDAGFAITKIALKSEVAVPGIDASTFDGIIQKAKAGCPVSQVLKAEITLDYQLKS [P0C0L2]"
  unit.label: "h"
  total protein half-life in vivo: 12.6
- sequence.chain: "MIIGNIHNLQPWLPQELRQAIEHIKAHVTAETPKGKHDIEGNRLFYLISEDMTEPYEARRAEYHARYLDIQIVLKGQEGMTFSTQPAGAPDTDWLADKDIAFLPEGVDEKTVILNEGDFVVFYPGEVHKPLCAVGAPAQVRKAVVKMLMA [P0AF96]"
  unit.label: "h"
  total protein half-life in vivo: 10.1
- sequence.chain: "MFDFASYHRAATLADAINLLADNPQAKLLAGGTDVLIQLHHHNDRYRHIVDIHNLAELRGITLAEDGSLRIGSATTFTQLIEDPITQRHLPALCAAATSIAGPQIRNVATYGGNICNGATSADSATPTLIYDAKLEIHSPRGVRFVPINGFHTGPGKVSLEHDEILVAFHFPPQPKEHAGSAHFKYAMRDAMDISTIGCAAHCRLDNGNFSELRLAFGVAAPTPIRCQHAEQTAQNAPLNLQTLEAISESVLQDVAPRSSWRASKEFRLHLIQTMTKKVISEAVAAAGGKLQ"
  unit.label: "h"
  total protein half-life in vivo: 9.6
- sequence.chain: "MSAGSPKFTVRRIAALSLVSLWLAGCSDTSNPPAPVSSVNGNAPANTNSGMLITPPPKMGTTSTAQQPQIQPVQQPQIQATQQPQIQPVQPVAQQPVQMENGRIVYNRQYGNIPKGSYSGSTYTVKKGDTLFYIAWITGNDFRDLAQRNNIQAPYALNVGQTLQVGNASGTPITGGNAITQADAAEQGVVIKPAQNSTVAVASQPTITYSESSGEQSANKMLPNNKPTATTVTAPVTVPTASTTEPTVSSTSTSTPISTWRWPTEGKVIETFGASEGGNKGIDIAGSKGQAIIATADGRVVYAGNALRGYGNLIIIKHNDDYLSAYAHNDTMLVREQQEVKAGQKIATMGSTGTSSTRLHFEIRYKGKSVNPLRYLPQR [P0ADA3]"
  unit.label: "h"
  total protein half-life in vivo: 12
- sequence.chain: "MSKRLPPLNALRVFDAAARHLSFTRAAEELFVTQAAVSHQIKSLEDFLGLKLFRRRNRSLLLTEEGQSYFLDIKEIFSQLTEATRKLQARSAKGALTVSLLPSFAIHWLVPRLSSFNSAYPGIDVRIQAVDRQEDKLADDVDVAIFYGRGNWPGLRVEKLYAEYLLPVCSPLLLTGEKPLKTPEDLAKHTLLHDASRRDWQTYTRQLGLNHINVQQGPIFSHSAMVLQAAIHGQGVALANNVMAQSEIEAGRLVCPFNDVLVSKNAFYLVCHDSQAELGKIAAFRQWILAKAAAEQEKFRFRYEQ [P0A9F6]"
  unit.label: "h"
  total protein half-life in vivo: 13.3

# context switch: different sequence, same total protein half-life in vivo
Inquiry: // Input: `MAKNYYDITLALAGICQSARLVQQLAHQGHCDADALHVSLNSIIDMNPSSTLAVFGGSEANLRVGLETLLGVLNASSRQGLNAELTRYTLSLMVLERKLSSAKGALDTLGNRINGLQRQLEHFDLQSETLMSAMAAIYVDVISPLGPRIQVTGSPAVLQSPQVQAKVRATLLAGIRAAVLWHQVGGGRLQLMFSRNRLTTQAKQILAHLTPEL` . Output its total protein half-life in vivo only.
Reply text: 13.2

* * *

Let's look at some sequences and their measured total protein half-life in vivo.
experiment: total protein half-life in vivo (active degradation + dilution); higher = more stable protein; conditions: E. coli NCM3722 delta-lon; growth: N-lim chemostat; doubling time 6 h
Give the value, in units of h, as a plain number.

- sequence.chain: "MSNTPIELKGSSFTLSVVHLHEAEPKVIHQALEDKIAQAPAFLKHAPVVLNVSALEDPVNWSAMHKAVSATGLRVIGVSGCKDAQLKAEIEKMGLPILTEGKEKAPRPAPTPQAPAQNTTPVTKTRLIDTPVRSGQRIYAPQCDLIVTSHVSAGAELIADGNIHVYGMMRGRALAGASGDRETQIFCTNLMAELVSIAGEYWLSDQIPAEFYGKAARLQLVENALTVQPLN"
  readout.kind: "total protein half-life in vivo"
  result.value: 5.84

Inquiry: // Input: `MPFRSNNPITRDELLSRFFPQYHPVTTFNSGLSGGSFLIEHQGQRFVVRQPHDPDAPQSAFLRQYRALSQLPACIAPKPHLYLRDWMVVDYLPGAVKTYLPDTNELAGLLYYLHQQPRFGWRITLLPLLELYWQQSDPARRTVGWLRMLKRLRKAREPRPLRLSPLHMDVHAGNLVHSASGLKLIDWEYAGDGDIALELAAVWVENTEQHRQLVNDYATRAKIYPAQLWRQVRRWFPWLLMLKAGWFEYRWRQTGDQQFIRLADDTWRQLLIKQ` . Output its total protein half-life in vivo only.
Reply text: 6.04

* * *

assay: total protein half-life in vivo (active degradation + dilution); higher = more stable protein; conditions: E. coli NCM3722 delta-smpB; growth: N-lim chemostat; doubling time 6 h
Let's look at some sequences and their measured total protein half-life in vivo.
Give the value, in units of h, as a plain number.

- sequence.chain: "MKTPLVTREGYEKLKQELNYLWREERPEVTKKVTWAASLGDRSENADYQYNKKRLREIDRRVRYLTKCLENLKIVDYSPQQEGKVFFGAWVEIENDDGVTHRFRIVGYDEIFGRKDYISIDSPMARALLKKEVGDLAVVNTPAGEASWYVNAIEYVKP"
  readout.kind: "total protein half-life in vivo"
  result.value: 3.07
- sequence.chain: "MPDQTQQFSFKVLTINIHKGFTAFNRRFILPELRDAVRTVSADIVCLQEVMGAHEVHPLHVENWPDTSHYEFLADTMWSDFAYGRNAVYPEGHHGNAVLSRYPIEHYENRDVSVDGAEKRGVLYCRIVPPMTGKAIHVMCVHLGLREAHRQAQLAMLAEWVNELPDGEPVLVAGDFNDWRQKANHPLKVQAGLDEIFTRAHGRPARTFPVQFPLLRLDRIYVKNASASAPTALPLRTWRHLSDHAPLSAEIHL [P0AAW1]"
  readout.kind: "total protein half-life in vivo"
  result.value: 5.57

Inquiry: // Input: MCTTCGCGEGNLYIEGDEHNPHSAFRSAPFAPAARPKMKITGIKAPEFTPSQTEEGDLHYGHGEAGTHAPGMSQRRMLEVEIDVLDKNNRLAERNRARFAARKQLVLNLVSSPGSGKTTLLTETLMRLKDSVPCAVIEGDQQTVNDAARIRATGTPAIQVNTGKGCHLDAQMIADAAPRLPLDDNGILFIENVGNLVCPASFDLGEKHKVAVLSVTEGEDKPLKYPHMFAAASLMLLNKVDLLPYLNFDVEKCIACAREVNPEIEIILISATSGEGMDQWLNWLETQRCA [P0AAN3] . Output its total protein half-life in vivo only.
Reply text: 3.08

Inquiry: // Input: MNYQNDDLRIKEIKELLPPVALLEKFPATENAANTVAHARKAIHKILKGNDDRLLVVIGPCSIHDPVAAKEYATRLLALREELKDELEIVMRVYFEKPRTTVGWKGLINDPHMDNSFQINDGLRIARKLLLDINDSGLPAAGEFLDMITPQYLADLMSWGAIGARTTESQVHRELASGLSCPVGFKNGTDGTIKVAIDAINAAGAPHCFLSVTKWGHSAIVNTSGNGDCHIILRGGKEPNYSAKHVAEVKEGLNKAGLPAQVMIDFSHANSSKQFKKQMDVCADVCQQIAGGEKAIIGVMVESHLVEGNQSLESGEPLAYGKSITDACIGWEDTDALLRQLANAVKARRG [P0AB91] . Output its total protein half-life in vivo only.
Reply text: 3.01

Inquiry: // Input: `MKTALLLEKLEGQLATLRQRCAPVSQFATLSARFDRHLFQTRATTLQACLDEAGDNLAALRHAVEQQQLPQVAWLAEHLAAQLEAIAREASAWSLREWDSAPPKIARWQRKRIQHQDFERRLREMVAERRARLARVTDLVEQQTLHREVEAYEARLARCRHALEKIENRLARLTR` . Output its total protein half-life in vivo only.
Reply text: 2.21

* * *

experiment: total protein half-life in vivo (active degradation + dilution); higher = more stable protein; details: wild type E. coli NCM3722; growth: N-lim chemostat; doubling time 12 h
readout.kind: total protein half-life in vivo (h)
Give the value, in units of h, as a plain number.

- sequence.chain: "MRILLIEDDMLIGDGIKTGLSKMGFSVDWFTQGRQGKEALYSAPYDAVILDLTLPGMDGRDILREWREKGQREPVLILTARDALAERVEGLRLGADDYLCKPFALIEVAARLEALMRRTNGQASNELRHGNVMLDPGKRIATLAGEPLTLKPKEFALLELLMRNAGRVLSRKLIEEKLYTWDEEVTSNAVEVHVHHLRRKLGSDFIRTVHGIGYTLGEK"
  unit.label: "h"
  total protein half-life in vivo: 6.35
- sequence.chain: "MNPVPAQREYFLDSIRAWLMLLGIPFHISLIYSSHTWHVNSAESSLWLTLFNDFIHSFRMQVFFVISGYFSYMLFLRYPLKKWWKVRVERVGIPMLTAIPLLTLPQFIMLQYVKGKAESWPGLSLYDKYNTLAWELISHLWFLLVLVVMTTLCVWIFKRIRNNLENSDKTNKKFSMVKLSVIFLCLGIGYAVIRRTIFIVYPPILSNGMFNFIVMQTLFYLPFFILGALAFIFPHLKALFTTPSRGCTLAAALAFVAYLLNQRYGSGDAWMYETESVITMVLGLWMVNVVFSFGHRLLNFQSARVTYFVNASLFIYLVHHPLTLFFGAYITPHITSNWLGFLCGLIFVVGIAIILYEIHLRIPLLKFLFSGKPVVKRENDKAPAR"
  unit.label: "h"
  total protein half-life in vivo: 9.69
- sequence.chain: "MDKSKRHLAWWVVGLLAVAAIVAWWLLRPAGVPEGFAVSNGRIEATEVDIASKIAGRIDTILVKEGKFVREGEVLAKMDTRVLQEQRLEAIAQIKEAQSAVAAAQALLEQRQSETRAAQSLVNQRQAELDSVAKRHTRSRSLAQRGAISAQQLDDDRAAAESARAALESAKAQVSASKAAIEAARTNIIQAQTRVEAAQATERRIAADIDDSELKAPRDGRVQYRVAEPGEVLAAGGRVLNMVDLSDVYMTFFLPTEQAGTLKLGGEARLILDAAPDLRIPATISFVASVAQFTPKTVETSDERLKLMFRVKARIPPELLQQHLEYVKTGLPGVAWVRVNEELPWPDDLVVRLPQ"
  unit.label: "h"
  total protein half-life in vivo: 13.5
- sequence.chain: "MSHTIRDKQKLKARASKIQGQVVALKKMLDEPHECAAVLQQIAAIRGAVNGLMREVIKGHLTEHIVHQGDELKREEDLDVVLKVLDSYIK"
  unit.label: "h"
  total protein half-life in vivo: 11.2

Inquiry: // Input: `MKKSTLALVVMGIVASASVQAAEIYNKDGNKLDVYGKVKAMHYMSDNASKDGDQSYIRFGFKGETQINDQLTGYGRWEAEFAGNKAESDTAQQKTRLAFAGLKYKDLGSFDYGRNLGALYDVEAWTDMFPEFGGDSSAQTDNFMTKRASGLATYRNTDFFGVIDGLNLTLQYQGKNENRDVKKQNGDGFGTSLTYDFGGSDFAISGAYTNSDRTNEQNLQSRGTGKRAEAWATGLKYDANNIYLATFYSETRKMTPITGGFANKTQNFEAVAQYQFDFGLRPSLGYVLSKGKDIEGIGDEDLVNYIDVGATYYFNKNMSAFVDYKINQLDSDNKLNINNDDIVAVGMTYQF` . Output its total protein half-life in vivo only.
Reply text: 11
